Each recorded value in this set is attributed to ChEMBL document CHEMBL1938265.

System: LoVo
protocol: Antiproliferative activity against human LoVo cells after 48 to 72 hrs by MTT assay
Assay type: functional, cell-based
pIC50: −log10 of the molar value.
assay.endpoint: pIC50

Record excerpt, results attached:
{"smiles": "O=C1NC(=O)c2c1c1c3ccccc3[nH]c1c1c2c2ccccc2n1CCOCCO", "assay.endpoint": "pIC50", "observed.value": 5.40}
{"smiles": "CNCCOCCn1c2ccccc2c2c3c(c4c5ccccc5[nH]c4c21)C(=O)N(CCN(C)C)C3=O", "assay.endpoint": "pIC50", "observed.value": 5.22}
{"smiles": "CN(C)CCN1C(=O)c2c(c3c4ccccc4n(CCOCCO)c3c3[nH]c4ccccc4c23)C1=O", "assay.endpoint": "pIC50", "observed.value": 6.52}

P: CN(C)CCOCCn1c2ccccc2c2c3c(c4c5ccccc5[nH]c4c21)C(=O)N(CCN(C)C)C3=O.Cl.Cl
Q: CN(C)CCN1C(=O)c2c(c3c4ccccc4[nH]c3c3[nH]c4ccccc4c23)C1=O
Prompt: Lower pIC50: P or Q ? Use the label to indicate which entry you chose.
Completion: P
(P: 4.70, Q: 6.30)
